test.target: QueD (Ni-QueD; Streptomyces quercetinase) (Streptomyces sp. FLA, UniProt A2VA43, E76H)
Construct: C-terminal StrepII tag kept (pET23a-queD-Strep), E. coli BL21(DE3) pLysS grown with Ni2+; monocupin, native enzyme a dimer
experimental.protocol: intrinsic protein fluorescence titration
property.measured: pKd
One number for each entry, as −log10 of the molar value.

pKd for `O=c1c(O)c(-c2ccc(O)c(O)c2)oc2cc(O)cc(O)c12` is 5.89

====

test.target: QueD (Ni-QueD; Streptomyces quercetinase) (Streptomyces sp. FLA)
Construct: C-terminal StrepII tag kept (pET23a-queD-Strep), E. coli BL21(DE3) pLysS grown with Ni2+; monocupin, native enzyme a dimer
Sequence (A2VA43 1-186): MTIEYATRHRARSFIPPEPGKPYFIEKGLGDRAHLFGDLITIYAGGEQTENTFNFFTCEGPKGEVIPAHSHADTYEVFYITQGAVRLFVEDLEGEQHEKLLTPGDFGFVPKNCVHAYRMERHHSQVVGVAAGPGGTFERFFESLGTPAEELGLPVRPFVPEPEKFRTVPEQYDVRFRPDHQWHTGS
experimental.protocol: intrinsic protein fluorescence titration
property.measured: pKd
Give bare numbers, as −log10 of the molar value.

pKd for O=c1c(O)c(-c2ccc(O)c(O)c2)oc2cc(O)cc(O)c12 [quercetin] is 5.00

====

test.target: QueD (Ni-QueD; Streptomyces quercetinase) (Streptomyces sp. FLA, UniProt A2VA43, H71A)
Construct: C-terminal StrepII tag kept (pET23a-queD-Strep), E. coli BL21(DE3) pLysS grown with Ni2+; monocupin, native enzyme a dimer
experimental.protocol: intrinsic protein fluorescence titration
property.measured: pKd
Numbers only, as −log10 of the molar value.

pKd for `O=c1c(O)c(-c2ccc(O)c(O)c2)oc2cc(O)cc(O)c12` is 4.98

====

test.target: QueD (Ni-QueD; Streptomyces quercetinase) (Streptomyces sp. FLA, UniProt A2VA43, H69A)
Construct: C-terminal StrepII tag kept (pET23a-queD-Strep), E. coli BL21(DE3) pLysS grown with Ni2+; monocupin, native enzyme a dimer
experimental.protocol: intrinsic protein fluorescence titration
property.measured: pKd
Give bare numbers, as −log10 of the molar value.

pKd for `O=c1c(O)c(-c2ccc(O)c(O)c2)oc2cc(O)cc(O)c12` is 5.51

Value source: paper PMC4416304
